The measurements presented in this section are drawn from patent US20040146872A1.

Listing: quantification of the Northern blots, GLOL of selected compounds
# Tested on: GLOL
# PROTOCOL_DESCRIPTION: Northern blot quantification of GLOL mRNA in liver of rats fed PUFA-supplemented fat free diet
# Format: in vivo
# TEST_CONDITIONS: rat liver RNA; female Wistar rats, fat free diet 2 weeks, then fatty acid 5% (w/w) in diet 2 weeks; ± standard deviation of three rats; normalized for 18S; fat free = 100
# Text: The present inventors have identified genes that were modulated or regulated by dietary fat using a differential display technique (Liang P. and Pardee A. B., 1992, Science, 257: 967-971). Groups of female Wistar rats were fed fat free diet for two weeks. After two weeks all groups but one (controls) were supplemented with highly purified PUFAs for an additional two weeks. The rats were sacrificed and tissues were removed to obtain RNA for differential display and Northern blotting. […]
Report the figure in % without appending any unit label.

In the examples that follow, each entry is paired with its recorded quantification of the Northern blots, GLOL.
[
  {
    "TEST_SMILES": "CC/C=C\\C/C=C\\C/C=C\\C/C=C\\C/C=C\\CCCC(=O)O",
    "READOUT_NUMBER": 29
  },
  {
    "TEST_SMILES": "CC/C=C\\C/C=C\\C/C=C\\C/C=C\\C/C=C\\C/C=C\\CCC(=O)O",
    "READOUT_NUMBER": 36
  },
  {
    "TEST_SMILES": "CCCCC/C=C\\C/C=C\\CCCCCCCC(=O)O",
    "READOUT_NUMBER": 64
  }
]

Now consider the entry below.
Recorded quantification of the Northern blots, GLOL for CCCCC/C=C\C/C=C\C/C=C\CCCCC(=O)O , please?
37

====

# Tested on: delta-3, delta-2-enoyl-CoA isomerase
# PROTOCOL_DESCRIPTION: Northern blot quantification of delta-3, delta-2-enoyl-CoA isomerase mRNA in liver of rats fed PUFA-supplemented fat free diet
# Assay type: in vivo
# TEST_CONDITIONS: rat liver RNA; female Wistar rats, fat free diet 2 weeks, then fatty acid 5% (w/w) in diet 2 weeks; ± standard deviation of three rats; normalized for 18S; EPA = 100, fat free = 14 ± 18
READOUT_LABEL: quantification of the Northern blots, delta-3, delta-2-enoyl-CoA isomerase (%)
Report the figure in % without appending any unit label.

In the examples that follow, each entry is paired with its recorded quantification of the Northern blots, delta-3, delta-2-enoyl-CoA isomerase.
[
  {
    "TEST_SMILES": "CC/C=C\\C/C=C\\C/C=C\\C/C=C\\C/C=C\\C/C=C\\CCC(=O)O",
    "READOUT_NUMBER": 87
  },
  {
    "TEST_SMILES": "CC/C=C\\C/C=C\\C/C=C\\C/C=C\\C/C=C\\CCCC(=O)O",
    "READOUT_NUMBER": 100
  },
  {
    "TEST_SMILES": "CCCCC/C=C\\C/C=C\\C/C=C\\CCCCC(=O)O",
    "READOUT_NUMBER": 33
  }
]

Now consider the entry below.
Recorded quantification of the Northern blots, delta-3, delta-2-enoyl-CoA isomerase for CCCCC/C=C\C/C=C\CCCCCCCC(=O)O , please?
29

====

Listing: quantification of the Northern blots, INSIG1 of selected compounds
# Tested on: INSIG1
# PROTOCOL_DESCRIPTION: Northern blot quantification of INSIG1 mRNA in liver of rats fed PUFA-supplemented fat free diet
# Format: in vivo
# TEST_CONDITIONS: rat liver RNA; female Wistar rats, fat free diet 2 weeks, then fatty acid 5% (w/w) in diet 2 weeks; ± standard deviation of three rats; normalized for 18S; fat free = 100
Report the figure in % without appending any unit label.

In the examples that follow, each entry is paired with its recorded quantification of the Northern blots, INSIG1.
[
  {
    "TEST_SMILES": "CC/C=C\\C/C=C\\C/C=C\\C/C=C\\C/C=C\\CCCC(=O)O",
    "UNIT_STRING": "%",
    "READOUT_NUMBER": 25
  },
  {
    "TEST_SMILES": "CCCCC/C=C\\C/C=C\\C/C=C\\CCCCC(=O)O",
    "UNIT_STRING": "%",
    "READOUT_NUMBER": 11
  },
  {
    "TEST_SMILES": "CC/C=C\\C/C=C\\C/C=C\\C/C=C\\C/C=C\\C/C=C\\CCC(=O)O",
    "UNIT_STRING": "%",
    "READOUT_NUMBER": 13
  }
]

Now consider the entry below.
Recorded quantification of the Northern blots, INSIG1 for CCCCC/C=C\C/C=C\CCCCCCCC(=O)O , please?
49
